Just for reference, patent US10869878B2 is where these values come from.

For each of the molecules below, state its total number of samples positive for L. mucosae incubation.
Test system: Lactobacilli in the secretions from BV patients
Test: Selective promotion of carbohydrate containing gels for the growth of Lactobacilli, 16s rDNA identification (Experimental Example 4)
Format: cell-based
Details: secretions from 20 BV patients; 1% (w/v) carbohydrate gel, 48 hrs slightly aerobic
Protocol: (3) After sampling, the vaginal secretion specimens from BV patients meeting the criteria of inclusion were immediately inoculated to the above 4 gels containing a carbohydrate, slightly aerobically incubated at 37° C. for 48 hrs, then transferred to a plate containing improved MRS with 1% (w/v) glucose and 5% (w/v) calf serum, slightly aerobically incubated for 20-48 hrs, isolated, purified and multiplied. The strain was identified by 16s rDNA sequencing.
Just the number, please.

Data request: Report total number of samples positive for L. mucosae incubation, nothing else, for this molecule: OC[C@H]1O[C@H](OC[C@H]2OC(O)(CO)[C@@H](O)[C@@H]2O)[C@H](O)[C@@H](O)[C@@H]1O (stereo partly shown)
Data returned: 1

Data request: Report total number of samples positive for L. mucosae incubation, nothing else, for this molecule: OC[C@H]1O[C@H](O[C@H]2[C@H](O)[C@@H](O)C(O)O[C@@H]2CO)[C@H](O)[C@@H](O)[C@@H]1O (mixture of isomers)
Data returned: 1

Data request: Report total number of samples positive for L. mucosae incubation, nothing else, for this molecule: OC[C@H]1O[C@H](OC[C@H]2OC(O)[C@H](O)[C@@H](O)[C@@H]2O)[C@H](O)[C@@H](O)[C@@H]1O (stereo partly shown)
Data returned: 1

Data request: Report total number of samples positive for L. mucosae incubation, nothing else, for this molecule: "OC[C@H]1O[C@@](CO)(O[C@H]2O[C@H](CO)[C@@H](O)[C@H](O)[C@H]2O)[C@@H](O)[C@@H]1O"
Data returned: 1

* * *

Tested on: BV-associated bacteria
Assay: Acid production by BV-associated bacteria in carbohydrate containing gels, slightly aerobic incubation (Experimental Example 1)
Type: cell-based
Conditions: Specimen 4; 14 hrs; 1% (w/v) carbohydrate gel, slightly aerobic, 37° C., initial pH 5.4
recorded-metric: pH of the gel

Data request: Report pH of the gel, nothing else, for this compound: OC[C@H]1O[C@H](O[C@H]2[C@H](O)[C@@H](O)C(O)O[C@@H]2CO)[C@H](O)[C@@H](O)[C@@H]1O (mixture of isomers)
Data returned: 4.6

Data request: Report pH of the gel, nothing else, for this compound: "OC[C@H]1O[C@@](CO)(O[C@H]2O[C@H](CO)[C@@H](O)[C@H](O)[C@H]2O)[C@@H](O)[C@@H]1O"
Data returned: 4.8-5.1

Data request: Report pH of the gel, nothing else, for this compound: OC[C@H]1O[C@H](OC[C@H]2OC(O)(CO)[C@@H](O)[C@@H]2O)[C@H](O)[C@@H](O)[C@@H]1O (stereo partly shown)
Data returned: 4.1

Data request: Report pH of the gel, nothing else, for this compound: OC[C@H]1O[C@H](OC[C@H]2OC(O)[C@H](O)[C@@H](O)[C@@H]2O)[C@H](O)[C@@H](O)[C@@H]1O (stereo partly shown)
Data returned: 4.4

* * *

System: Gardnerella vaginalis in the secretions from BV patients
Test: Selective promotion of carbohydrate containing gels for the growth of Gardnerella vaginalis (Experimental Example 4)
Type: cell-based
Conditions: secretions from 20 BV patients; 1% (w/v) carbohydrate gel, 48 hrs slightly aerobic
recorded-metric: samples positive for Gardnerella vaginalis, In total
Just the number, please.

Data request: Report samples positive for Gardnerella vaginalis, In total, nothing else, for this compound: OC[C@H]1O[C@H](OC[C@H]2OC(O)(CO)[C@@H](O)[C@@H]2O)[C@H](O)[C@@H](O)[C@@H]1O (stereo partly shown)
Data returned: 2

Data request: Report samples positive for Gardnerella vaginalis, In total, nothing else, for this compound: OC[C@H]1O[C@H](OC[C@H]2OC(O)[C@H](O)[C@@H](O)[C@@H]2O)[C@H](O)[C@@H](O)[C@@H]1O (stereo partly shown)
Data returned: 2

Data request: Report samples positive for Gardnerella vaginalis, In total, nothing else, for this compound: "OC[C@H]1O[C@@](CO)(O[C@H]2O[C@H](CO)[C@@H](O)[C@H](O)[C@H]2O)[C@@H](O)[C@@H]1O"
Data returned: 3

Data request: Report samples positive for Gardnerella vaginalis, In total, nothing else, for this compound: OC[C@H]1O[C@H](O[C@H]2[C@H](O)[C@@H](O)C(O)O[C@@H]2CO)[C@H](O)[C@@H](O)[C@@H]1O (mixture of isomers)
Data returned: 6

* * *

System: BV-associated bacteria
Assay: Acid production by BV-associated bacteria in carbohydrate containing gels, slightly aerobic incubation (Experimental Example 1)
Format: cell-based
Conditions: Specimen 3; 14 hrs; 1% (w/v) carbohydrate gel, slightly aerobic, 37° C., initial pH 5.4
recorded-metric: pH of the gel

Data request: Report pH of the gel, nothing else, for this compound: "OC[C@H]1O[C@@](CO)(O[C@H]2O[C@H](CO)[C@@H](O)[C@H](O)[C@H]2O)[C@@H](O)[C@@H]1O"
Data returned: 4.8-5.1

Data request: Report pH of the gel, nothing else, for this compound: OC[C@H]1O[C@H](OC[C@H]2OC(O)[C@H](O)[C@@H](O)[C@@H]2O)[C@H](O)[C@@H](O)[C@@H]1O (stereo partly shown)
Data returned: 4.1-4.4

Data request: Report pH of the gel, nothing else, for this compound: OC[C@H]1O[C@H](O[C@H]2[C@H](O)[C@@H](O)C(O)O[C@@H]2CO)[C@H](O)[C@@H](O)[C@@H]1O (mixture of isomers)
Data returned: 4.1-4.4

Data request: Report pH of the gel, nothing else, for this compound: OC[C@H]1O[C@H](OC[C@H]2OC(O)(CO)[C@@H](O)[C@@H]2O)[C@H](O)[C@@H](O)[C@@H]1O (stereo partly shown)
Data returned: 3.8-4.1

* * *

Tested on: Lactobacilli in the secretions from BV patients
Assay: Selective promotion of carbohydrate containing gels for the growth of Lactobacilli, 16s rDNA identification (Experimental Example 4)
Format: cell-based
Details: secretions from 20 BV patients; 1% (w/v) carbohydrate gel, 48 hrs slightly aerobic
For each of the compounds below, state its total number of samples positive for L. gasseri incubation.
Just the number, please.

Data request: Report total number of samples positive for L. gasseri incubation, nothing else, for this compound: OC[C@H]1O[C@H](OC[C@H]2OC(O)[C@H](O)[C@@H](O)[C@@H]2O)[C@H](O)[C@@H](O)[C@@H]1O (stereo partly shown)
Data returned: 2

Data request: Report total number of samples positive for L. gasseri incubation, nothing else, for this compound: "OC[C@H]1O[C@@](CO)(O[C@H]2O[C@H](CO)[C@@H](O)[C@H](O)[C@H]2O)[C@@H](O)[C@@H]1O"
Data returned: 2

Data request: Report total number of samples positive for L. gasseri incubation, nothing else, for this compound: OC[C@H]1O[C@H](O[C@H]2[C@H](O)[C@@H](O)C(O)O[C@@H]2CO)[C@H](O)[C@@H](O)[C@@H]1O (mixture of isomers)
Data returned: 2

Data request: Report total number of samples positive for L. gasseri incubation, nothing else, for this compound: OC[C@H]1O[C@H](OC[C@H]2OC(O)(CO)[C@@H](O)[C@@H]2O)[C@H](O)[C@@H](O)[C@@H]1O (stereo partly shown)
Data returned: 2

* * *

For each of the compounds below, state its pH of the semi-solid agar.
Test system: BV-associated bacteria
Assay: Acid production by BV-associated bacteria in semi-solid agars containing a carbohydrate, anaerobic incubation (Experimental Example 2)
Assay type: cell-based
Conditions: Specimen 4; 24 hrs anaerobic, 37° C.; 1.5% (w/v) carbohydrate, initial pH 5.4
Just the number, please.

Data request: Report pH of the semi-solid agar, nothing else, for this compound: OC[C@H]1O[C@@](CO)(O[C@H]2O[C@H](CO)[C@@H](O)[C@H](O)[C@H]2O)[C@@H](O)[C@@H]1O [Sucrose, sucrose]
Data returned: 4.1

Data request: Report pH of the semi-solid agar, nothing else, for this compound: O=C(CO)[C@@H](O)[C@H](O)[C@H](O)CO [Fructose, fructose]
Data returned: 4.1

Data request: Report pH of the semi-solid agar, nothing else, for this compound: OC[C@H]1O[C@H](OC[C@H]2OC(O)[C@H](O)[C@@H](O)[C@@H]2O)[C@H](O)[C@@H](O)[C@@H]1O (some centres unmarked) [Isomaltose, isomaltose]
Data returned: 3.8

Data request: Report pH of the semi-solid agar, nothing else, for this compound: OC[C@H]1O[C@H](O[C@H]2[C@H](O)[C@@H](O)C(O)O[C@@H]2CO)[C@H](O)[C@@H](O)[C@@H]1O (mixture of isomers) [Maltose, maltose]
Data returned: 3.8

Data request: Report pH of the semi-solid agar, nothing else, for this compound: OC[C@H]1O[C@H](OC[C@H]2OC(O)(CO)[C@@H](O)[C@@H]2O)[C@H](O)[C@@H](O)[C@@H]1O (some centres unmarked) [Isomaltulose, isomaltulose]
Data returned: 3.8
